tested on: DU-145 prostate; test: NCI-60 one-dose screen, 48 h; details: 10 µM unless noted
About 83,000 compounds went through this panel and 20% of them were active in at least one assay; those are over-represented in the sample as a whole. Activity calls are given as the source filed them. The calls were made as follows: active = growth percent below 10; inactive = the rest.
Tick one outcome: active, inactive

// outcome(item) with item = Clc1ccc(C(Cn2ccnc2)OCc2ccsc2Cl)c(Cl)c1 (centres undefined)
inactive

// outcome(item) with item = CN(C)C[C@@H]1CCn2cc(c3ccccc32)C2=C(C(=O)NC2=O)c2cn(c3ccccc23)CCO1
inactive

// outcome(item) with item = O=C(NOCCO)c1ccc2cncn2c1Nc1ccc(I)cc1F
inactive

// outcome(item) with item = CC(C)=CCc1cc2c(cc1O)C1=C(C(=O)C3=C(C1=O)S(=O)(=O)CCN3)C(C=C(C)C)O2 (centres undefined)
active

// outcome(item) with item = CSc1nc2ncnc(SC)c2[nH]1
inactive

// outcome(item) with item = CO/C=C/C(=O)c1cc2cnc3c(=N)cc(NC(=O)C(C)C)c([nH]1)c23
active

// outcome(item) with item = C=CC(=O)Nc1cc2c(Nc3ccc(F)c(Cl)c3)ncnc2cc1OCCCN1CCOCC1
inactive

// outcome(item) with item = CCN1CCN(c2nc(C)cc(N(CCNc3ccnc4cc(Cl)ccc34)Cc3ccc4c(c3)OCO4)n2)CC1
inactive

// outcome(item) with item = COc1cc2c(Oc3ccc(NC(=O)C4(C(=O)Nc5ccc(F)cc5)CC4)cc3F)ccnc2cc1OCCCN1CCOCC1
inactive

// outcome(item) with item = COc1ccc2c(CCc3ccc(Cl)cc3)c3[n+](cc2c1OC)CCc1cc2c(cc1-3)OCO2
inactive

// outcome(item) with item = FC(F)(F)c1ccc(CNc2ccc(Cc3c[nH]c4ncc(Cl)cc34)cn2)cn1
inactive

// outcome(item) with item = COC(=O)Nc1nc2ccc(C(=O)c3ccc(N(C)C4COC4)cc3)cc2[nH]1
inactive

// outcome(item) with item = COc1ccc2nc3cc(Cl)ccc3c(Nc3ccc(N(C)C)cc3)c2c1
inactive

// outcome(item) with item = CCN1/C(=C/C=C/c2n(-c3ccccc3)c3ccc(-c4nc5ccccc5s4)cc3[n+]2CC)N(c2ccccc2)c2ccc(-c3nc4ccccc4s3)cc21
active

// outcome(item) with item = Cc1cc(N(CCNc2ccnc3cc(Cl)ccc23)Cc2ccc3c(c2)OCO3)nc(N2CCCC2)n1
inactive

// outcome(item) with item = COc1cnc2c(c1)C(=O)c1c-2n(CCCN2CCC(O)CC2)c(=O)c2cc(Cl)ccc12
inactive

// outcome(item) with item = Cc1ccc(N=C2CSc3nnc(-c4csc5c4CCCC5)n3N2)cc1
inactive

// outcome(item) with item = O=C1/C(=C\c2cccc(OCCCCCOc3ccc(Cl)cc3)c2)N=C2SCCCN12
inactive

// outcome(item) with item = COc1cc(-c2nc(C(=O)Nc3ccc(C)cc3)nn2-c2ccc(F)c(F)c2)cc(OC)c1OC
inactive

The values you see were collected from PubChem BioAssay (NCI).
